Biological target: BRD4 (BD1) (Homo sapiens, UniProt O60885)
Construct: with relatively long constructs also being possible, preferably amino acids 44-168
Experiment: Binding assay BRD4/acetylated peptide H4 (TR-FRET protein-protein interaction assay)
result type: IC50 (µM)
One number for each entry, in µM.

Example entries and their recorded answers appear below.
| molecule | IC50, µM |
| --- | --- |
| CNC(=O)N1N=C(c2ccc(-c3c(C)noc3C)cc2)c2cc(Cl)c(OC)cc2C[C@@H]1C | 0.13 |
| CNC(=O)N1N=C(c2ccc(Cl)cc2)c2cc(-c3ccc(S(=O)(=O)NC)cc3)ccc2CC1C (racemic) | 0.16 |
| CNC(=O)N1N=C(c2cccc(-c3ccnn3C)c2)c2cc(OC)c(OC)cc2CC1C (racemic) | 0.12 |
| CNC(=O)N1N=C(c2ccc(-c3c(C)nn(C)c3C)cc2)c2cc(OC(F)(F)F)ccc2C[C@@H]1C | 0.02 |
| CNC(=O)N1N=C(c2ccc(N3CCN(S(C)(=O)=O)CC3)cc2)c2cc(OC)c(OC)cc2C[C@@H]1C | 0.04 |
| CNC(=O)N1N=C(c2ccc(-c3ccc(C(=O)NC4CC4)cc3)cc2)c2cc(OC)c(OC)cc2CC1C (racemic) | 0.03 |

Challenge: Report IC50 for CNC(=O)N1N=C(c2ccc(N3CCN(C(=O)C(C)(C)O)CC3)cc2)c2cc(OC)c(OC)cc2CC1C (racemic) please.
Response given: 0.05
